# EXPERIMENTAL_TARGET: T1, PUF4 RNA-binding domain (Saccharomyces cerevisiae, UniProt P25339 537-888)
# T1 sequence: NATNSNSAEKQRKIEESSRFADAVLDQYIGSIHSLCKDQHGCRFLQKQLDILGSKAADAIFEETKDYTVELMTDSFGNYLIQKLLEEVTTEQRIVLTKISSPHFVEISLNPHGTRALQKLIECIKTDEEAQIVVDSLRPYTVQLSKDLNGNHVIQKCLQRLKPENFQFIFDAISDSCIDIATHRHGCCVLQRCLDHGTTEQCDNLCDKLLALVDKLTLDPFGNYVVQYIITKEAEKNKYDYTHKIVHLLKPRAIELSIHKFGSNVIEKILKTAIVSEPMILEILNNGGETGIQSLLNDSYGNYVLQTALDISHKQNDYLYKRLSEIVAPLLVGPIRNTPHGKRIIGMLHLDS
# TEST_PROTOCOL: Mg; RNA-MaP; 20 mM Na-HEPES pH 7.4, 30 mM KOAc, 0.75 mM MgCl2, 0.1% Tween-20, 5% glycerol, 0.1 mg/mL BSA, 2 mM DTT; 25 C; 0.0125-409.6 nM protein
# CONDITION_PARAMETERS: tags: N-His6-TEV cleaved; C-SNAP kept, Cy3B-labelled; label: tethered on chip by stalled RNA polymerase
So I've got a bunch of binders here, and I need their Kd values.
Give the value, in units of nM, as a plain number.

stdin: Please report the recorded Kd for Id_ii_S4_P3E.2_K3.1_C3.2_[T-1A]_H3.1_A3.1_F3.1_T3.2_[T9A] (ssRNA) RNA: UUUGACAACUGAUCGUUCUUUCUCAUGUAUAUAAAUUCUUUCUCGAUCAGUUGUCUUU .
stdout: 5.28

stdin: Query: Kd; subject: Ib_S4_P4E.1_K4.1_C4.1_H4.1_A4.1_[T5G]_[A6C]_F4.1_T4.1 (ssRNA) RNA: UUUGACAACUGAUCGUUCUUUCUUGUAGCUUAUUCUUUCUCGAUCAGUUGUCUUU
stdout: 4.82

stdin: Which Kd is listed for Id_ii_S2_P3E.4_K3.3_C3.2_[C-2G]_[T-1C]_H3.3_A3.1_F3.1_T3.2_[T9C]_[A10G] (ssRNA) RNA: UUUGAUUAAUAUGAUAUCGUUCUUUCUGCACACUAUACGUUCUUUCUCGAUAUCAUAUUAAUCUUU ?
stdout: 817

stdin: What value of measured Kd is listed for UCUCUUCUUGUAUAUUCAUAUCUCUU (ssRNA) [Ie_S1_P3E.2_K3.1_C3.2_H3.1_A3.1_F3.1_[+7TC]_T3.2] ?
stdout: 10.3

stdin: Entry under review: UCUCUUUGUAAACAAUCUCUU (ssRNA) [Ic_S1_P4E.1_K4.1_C4.1_H4.1_A4.1_[T5A]_[T7C]_F4.1_[T8A]_T4.1] . Reported Kd?
stdout: 57.4

stdin: I have this binder here, Ib_S4_P5E.1_K5.1_C5.1_H5.1_[G2A]_A5.1_F5.1_[A10T]_T5.1 (ssRNA) RNA: UUUGACAACUGAUCGUUCUUUCUUAUAUUAUUUUUCUUUCUCGAUCAGUUGUCUUU , and I need its recorded Kd.
stdout: 259
